Numbers sourced from patent US6709873B1.

System: MoAb R-3-1
METHOD SUMMARY: Inhibition ELISA of MoAb R-3-1
Type: binding, mouse
CONDITION SUMMARY: tissue culture supernatant
ENDPOINT LABEL: Percent inhibition of MoAb R-3-1

Below: 4 compounds and their reported Percent inhibition of MoAb R-3-1.
{"COMPOUND": "CO[C@H]1C[C@@H]2CC[C@@H](C)[C@@](O)(O2)C(=O)C(=O)N2CCCC[C@H]2C(=O)O[C@H]([C@H](C)C[C@@H]2CC[C@@H](O)[C@H](O)C2)CC(=O)[C@H](C)/C=C(\\C)[C@@H](O)[C@@H](OC)C(=O)[C@H](C)C[C@H](C)/C=C/C=C/C=C/1C", "Percent inhibition of MoAb R-3-1": "96%"}
{"COMPOUND": "CO[C@H]1C[C@@H]2CC[C@@H](C)[C@@](O)(O2)C(=O)C(=O)N2CCCC[C@H]2C(=O)O[C@H]([C@H](C)C[C@@H]2CC[C@@H](O)[C@H](O)C2)CC(=O)[C@H](C)/C=C(\\C)[C@@H](O)[C@@H](O)C(=O)[C@H](C)C[C@H](C)/C=C/C=C/C=C/1C", "Percent inhibition of MoAb R-3-1": "94%"}
{"COMPOUND": "C=CC[C@@H]1/C=C(\\C)C[C@H](C)C[C@H](OC)[C@H]2O[C@@](O)(C(=O)C(=O)N3CCCC[C@H]3C(=O)O[C@H](/C(C)=C/[C@@H]3CC[C@@H](O)[C@H](OC)C3)[C@H](C)[C@@H](O)CC1=O)[C@H](C)C[C@@H]2OC", "Percent inhibition of MoAb R-3-1": "1%"}
{"COMPOUND": "C=CCC1C=C(C)CC(C)CC(O)C2OC(O)(C(=O)C(=O)N3CCCCC3C(=O)OC(C(C)=CC3CCC(O)C(O)C3)C(C)C(O)CC1=O)C(C)CC2OC (centres unmarked)", "Percent inhibition of MoAb R-3-1": "0%"}

# context switch: different compound, same Percent inhibition of MoAb R-3-1
Which Percent inhibition of MoAb R-3-1 value belongs to C=CCC1C=C(C)CC(C)CC(OC)C2OC(O)(C(=O)C(=O)N3CCCCC3C(=O)OC(C(C)=CC3CCC(O)C(O)C3)C(C)C(O)CC1=O)C(C)CC2O (centres unmarked) ?
0%

###

Test system: Rabbit #1 polyclonal antibody (Rapa-42-DVS-KLH immunogen)
METHOD SUMMARY: Inhibition ELISA of rabbit #1 polyclonal serum
Assay type: binding
CONDITION SUMMARY: Rapa antigen coated ELISA plate
Listed here are molecules together with their documented Percent inhibition of Rabbit #1 polyclonal antibody.
Write the number in % without appending the unit.

{"MOLECULE": "CO[C@@H]1C[C@H](C[C@@H](C)[C@@H]2CC(=O)[C@H](C)/C=C(\\C)[C@@H](O)[C@@H](OC)C(=O)[C@H](C)C[C@H](C)/C=C/C=C/C=C(\\C)[C@@H](O)C[C@@H]3CC[C@@H](C)[C@@](O)(O3)C(=O)C(=O)N3CCCC[C@H]3C(=O)O2)CC[C@H]1O [M3, 7-O-Demethyl Rapamycin]", "UNIT OF MEASUREMENT": "%", "REPORTED VALUE": 15}
{"MOLECULE": "CO[C@H]1C[C@@H]2CC[C@@H](C)[C@@](O)(O2)C(=O)C(=O)N2CCCC[C@H]2C(=O)O[C@H]([C@H](C)C[C@@H]2CC[C@@H](O)[C@H](O)C2)CC(=O)[C@H](C)/C=C(\\C)[C@@H](O)[C@@H](OC)C(=O)[C@H](C)C[C@H](C)/C=C/C=C/C=C/1C [M4, 41-O-Demethyl Rapamycin]", "UNIT OF MEASUREMENT": "%", "REPORTED VALUE": 28}
{"MOLECULE": "C=CCC1C=C(C)CC(C)CC(O)C2OC(O)(C(=O)C(=O)N3CCCCC3C(=O)OC(C(C)=CC3CCC(O)C(O)C3)C(C)C(O)CC1=O)C(C)CC2OC (stereo not drawn) [FK met 5, 15,3 1-O-Didemethyl]", "UNIT OF MEASUREMENT": "%", "REPORTED VALUE": 0}
{"MOLECULE": "C=CCC1C=C(C)CC(C)CC(OC)C2OC(O)(C(=O)C(=O)N3CCCCC3C(=O)OC(C(C)=CC3CCC(O)C(O)C3)C(C)C(O)CC1=O)C(C)CC2OC (stereo not drawn) [FK met 3, 31-O-Demethyl]", "UNIT OF MEASUREMENT": "%", "REPORTED VALUE": 0}
{"MOLECULE": "C=CCC1C=C(C)CC(C)CC(OC)C2OC(O)(C(=O)C(=O)N3CCCCC3C(=O)OC(C(C)=CC3CCC(O)C(O)C3)C(C)C(O)CC1=O)C(C)CC2O (stereo not drawn) [FK met 4, 13,3 1-Didemethyl]", "UNIT OF MEASUREMENT": "%", "REPORTED VALUE": 0}

Rabbit #1 polyclonal antibody (Rapa-42-DVS-KLH immunogen) / Percent inhibition of Rabbit #1 polyclonal antibody / C=CC[C@@H]1/C=C(\C)C[C@H](C)C[C@H](OC)[C@H]2O[C@@](O)(C(=O)C(=O)N3CCCC[C@H]3C(=O)O[C@H](/C(C)=C/[C@@H]3CC[C@@H](O)[C@H](OC)C3)[C@H](C)[C@@H](O)CC1=O)[C@H](C)C[C@@H]2OC [FK, FK-506] : value?
0

Rabbit #1 polyclonal antibody (Rapa-42-DVS-KLH immunogen) / Percent inhibition of Rabbit #1 polyclonal antibody / C=CCC1C=C(C)CC(C)CC(O)C2OC(O)(C(=O)C(=O)N3CCCCC3C(=O)OC(C(C)=CC3CCC(O)C(OC)C3)C(C)C(O)CC1=O)C(C)CC2OC (stereo not drawn) [FK met 2, 15-O-Demethyl] : value?
0

Rabbit #1 polyclonal antibody (Rapa-42-DVS-KLH immunogen) / Percent inhibition of Rabbit #1 polyclonal antibody / C=CCC1C=C(C)CC(C)CC(OC)C2OC(O)(C(=O)C(=O)N3CCCCC3C(=O)OC(C(C)=CC3CCC(O)C(OC)C3)C(C)C(O)CC1=O)C(C)CC2O (stereo not drawn) [FK met 1, 13-O-Demethyl] : value?
0

Rabbit #1 polyclonal antibody (Rapa-42-DVS-KLH immunogen) / Percent inhibition of Rabbit #1 polyclonal antibody / CO[C@H]1C[C@@H]2CC[C@@H](C)[C@@](O)(O2)C(=O)C(=O)N2CCCC[C@H]2C(=O)O[C@H]([C@H](C)C[C@@H]2CC[C@@H](O)[C@H](O)C2)CC(=O)[C@H](C)/C=C(\C)[C@@H](O)[C@@H](O)C(=O)[C@H](C)C[C@H](C)/C=C/C=C/C=C/1C [M5, 32,41-Demethyl Rapamycin] : value?
16

###

Test system: Mouse polyclonal antibody Rapa-DVS #7
METHOD SUMMARY: Inhibition ELISA of mouse polyclonal serum Rapa-DVS #7
Assay type: binding
Set-up: concentration or dose not given beside the values
Listed here are compounds together with their documented Percent inhibition of mouse polyclonal antibody Rapa-DVS #7.
Write the number in % without appending the unit.

Below: 3 compounds and their reported Percent inhibition of mouse polyclonal antibody Rapa-DVS #7.
{"COMPOUND": "C=CC[C@@H]1/C=C(\\C)C[C@H](C)C[C@H](OC)[C@H]2O[C@@](O)(C(=O)C(=O)N3CCCC[C@H]3C(=O)O[C@H](/C(C)=C/[C@@H]3CC[C@@H](O)[C@H](OC)C3)[C@H](C)[C@@H](O)CC1=O)[C@H](C)C[C@@H]2OC [FK, FK-506]", "UNIT OF MEASUREMENT": "%", "REPORTED VALUE": 5.6}
{"COMPOUND": "CO[C@H]1C[C@@H]2CC[C@@H](C)[C@@](O)(O2)C(=O)C(=O)N2CCCC[C@H]2C(=O)O[C@H]([C@H](C)C[C@@H]2CC[C@@H](O)[C@H](O)C2)CC(=O)[C@H](C)/C=C(\\C)[C@@H](O)[C@@H](O)C(=O)[C@H](C)C[C@H](C)/C=C/C=C/C=C/1C [M5, 32,41-Demethyl Rapamycin]", "UNIT OF MEASUREMENT": "%", "REPORTED VALUE": 39.8}
{"COMPOUND": "CO[C@H]1C[C@@H]2CC[C@@H](C)[C@@](O)(O2)C(=O)C(=O)N2CCCC[C@H]2C(=O)O[C@H]([C@H](C)C[C@@H]2CC[C@@H](O)[C@H](O)C2)CC(=O)[C@H](C)/C=C(\\C)[C@@H](O)[C@@H](OC)C(=O)[C@H](C)C[C@H](C)/C=C/C=C/C=C/1C [M4, 41-O-Demethyl Rapamycin]", "UNIT OF MEASUREMENT": "%", "REPORTED VALUE": 40.1}

Mouse polyclonal antibody Rapa-DVS #7 / Percent inhibition of mouse polyclonal antibody Rapa-DVS #7 / CO[C@@H]1C[C@H](C[C@@H](C)[C@@H]2CC(=O)[C@H](C)/C=C(\C)[C@@H](O)[C@@H](OC)C(=O)[C@H](C)C[C@H](C)/C=C/C=C/C=C(\C)[C@@H](O)C[C@@H]3CC[C@@H](C)[C@@](O)(O3)C(=O)C(=O)N3CCCC[C@H]3C(=O)O2)CC[C@H]1O [M3, 7-O-Demethyl Rapamycin] : value?
28.3
